// cross-study collection: IC50 for TBK1 (Homo sapiens)
Reported Endpoint: IC50 (µM)

Some solved entries appear below for comparison.
Molecule: CN1CCN(Cc2ccc(-c3cnc4[nH]cc(C5=CCN(C(=O)NC6COC6)CC5)c4c3)cc2)CC1
IC50 (µM): 0.015

Molecule: NC(=O)c1nc(-c2ccncc2)sc1NC(=O)c1ccco1
IC50 (µM): 3.7

Molecule: Nc1ncc(-c2csc(CN3CCOCC3)c2)cc1C(=O)Nc1ccncc1
IC50 (µM): 0.14

I = CC(=O)c1ccc(-c2cnc(N)c(C(=O)Nc3ccncc3)c2)s1
II = CCC1C=C(c2c[nH]c3ncc(-c4ccc(CN5CCOCC5)cc4)cc23)CCN1C(=O)NC(C)C (centres unmarked)
Please indicate which entry, I or II , has the lower recorded IC50 value. Respond with the label that goes with your answer.
II

====

// cross-study collection: pIC50 for TBK1 (Homo sapiens, UniProt Q9UHD2)
pIC50: −log10 of the molar value.
Reported Endpoint: pIC50

Chem Smiles: Cn1cc(Nc2nccc(-c3ccc(N)c4c3CNC4=O)n2)cn1
Reported: 6.82

a = COCCn1cc(-c2cnc(N)c(C(=O)Nc3ccnnc3)c2)cn1
b = N#Cc1cc(-c2ccnc(Nc3ccc4oc(C(N)=O)cc4c3)c2)ccc1OC1CCOCC1
c = CC(C)OC(=O)N1CC=C(c2c[nH]c3ncccc23)CC1
Order the entries by their reported pIC50, beginning at the minimum. Lab note: record answer as labels in requested order.
b, a, c
(b: 5.72, a: 5.92, c: 6.49)

====

// cross-study collection: pIC50 for TBK1 (Homo sapiens)
pIC50: −log10 of the molar value.
Reported Endpoint: pIC50

Chem Smiles: Nc1ncc(-c2cc3ccccc3s2)cc1C(=O)Nc1ccncc1
pIC50: 6.20
--
Chem Smiles: CN1CCC(n2cc(Nc3cc(-c4ccc(OC5CCOCC5)c(C#N)c4)ccn3)cn2)CC1
pIC50: 7.08
--
Chem Smiles: CCC(=O)Nc1ccc(-c2ccnc(Nc3cccc(OC)c3)n2)c2c1C(=O)NC2
pIC50: 7.03
--
Chem Smiles: Nc1ncc(-c2ccc(CN3CCOCC3)s2)cc1C(=O)Nc1ccncc1Cl
pIC50: 6.60
--
Chem Smiles: CC(C)NC(=O)N1CC=C(c2c[nH]c3ncc(-c4ccc(CN5CCN(C)CC5)nc4)cc23)CC1
pIC50: 7.80
--
Chem Smiles: CC(C)NC(=O)N1CC=C(c2c[nH]c3ncc(-c4ccc(CN5CCN(C)CC5)o4)cc23)CC1
pIC50: 7.74
--
Chem Smiles: CC(=O)Nc1ccc(-c2cnc3[nH]cc(C4=CCN(C(=O)NC(C)C)CC4)c3c2)cc1
pIC50: 8.11
--
Chem Smiles: O=C(OC1CCCC1)N1CC=C(c2c[nH]c3ncccc23)CC1
pIC50: 6.51

I = N#Cc1cc(-c2ccnc(Nc3cnn(CCC4CCN(C(=O)CO)CC4)c3)c2)ccc1OC1CCOCC1
II = CN1CCN(c2ccnc(Nc3cc(-c4ccc(OC5CCOCC5)c(C#N)c4)ccn3)c2)CC1
Just curious, which one has the larger pIC50 reading, I or II ? Respond with the label that goes with your answer.
I

====

// cross-study collection: IC50 for TBK1 (Homo sapiens, UniProt Q9UHD2)
Reported Endpoint: IC50 (nM)

1 = CN1CCN(c2ccc(Nc3ncc4cc(C#N)c(=O)n(C5CCCC5)c4n3)cc2)CC1
2 = CC(=O)c1ccc(-c2cnc3[nH]cc(C4=CCN(C(=O)OC(C)(C)C)CC4)c3c2)cc1
Please indicate which entry, 1 or 2 , has the lower recorded IC50 value. Respond with the label that goes with your answer.
1

A = CS(=O)(=O)c1ccc(-c2cnc3[nH]cc(C4=C(F)CN(C(=O)NC5CCCC5)CC4)c3c2)cc1
B = N#Cc1cc(-c2ccnc(Nc3nccc(C4CCNCC4)n3)c2)ccc1OC1CCOCC1
C = N#Cc1cc(-c2ccnc(Nc3cn[nH]c3)c2)ccc1OCC1CC1
D = CCC(CC)NC(=O)N1CCC(c2c[nH]c3ncc(-c4ccc(CN5CCOCC5)s4)cc23)=CC1C (stereo not shown)
Put the items in sequence by IC50, from largest down. Lab note: record answer as labels in requested order.
C, A, B, D
(C: 460 nM, A: 250 nM, B: 140 nM, D: 35 nM)
